Molecular target: T1, recombinant hIL-6R protein, monomeric form (human, UniProt P08887 20-358)
T1 construct: also called monomeric hIL-6R; Human IL6R
T1 sequence: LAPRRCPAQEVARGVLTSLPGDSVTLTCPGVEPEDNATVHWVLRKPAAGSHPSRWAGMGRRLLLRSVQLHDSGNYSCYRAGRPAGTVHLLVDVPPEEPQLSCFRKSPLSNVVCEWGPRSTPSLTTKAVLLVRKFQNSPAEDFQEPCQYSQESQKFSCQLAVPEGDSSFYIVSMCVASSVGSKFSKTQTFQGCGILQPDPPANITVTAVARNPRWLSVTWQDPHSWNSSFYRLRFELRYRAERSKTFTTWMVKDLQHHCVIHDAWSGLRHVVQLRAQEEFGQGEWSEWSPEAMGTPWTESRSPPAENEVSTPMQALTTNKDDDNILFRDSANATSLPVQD
Test: SPR (BIAcore), captured mouse-IgG antibody, monomeric hIL-6R 1.56-12.5 nM
Quick reference for koff among some binders
recorded metric: koff (s⁻¹)

* VV6A9-5 (antibody, V domains shown, Human variable regions with mouse constant region; also called VV6A9-5 mIgG2a) VH: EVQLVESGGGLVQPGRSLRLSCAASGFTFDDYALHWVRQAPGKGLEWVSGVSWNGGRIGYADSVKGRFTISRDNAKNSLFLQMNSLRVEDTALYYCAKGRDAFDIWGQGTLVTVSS VL: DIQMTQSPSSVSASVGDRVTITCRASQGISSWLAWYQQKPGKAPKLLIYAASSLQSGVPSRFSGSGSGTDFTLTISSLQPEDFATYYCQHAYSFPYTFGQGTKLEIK | 7.52e-05
* VV1G4-7 (antibody, IgG2a, V domains shown, Human variable regions with mouse constant region) VH: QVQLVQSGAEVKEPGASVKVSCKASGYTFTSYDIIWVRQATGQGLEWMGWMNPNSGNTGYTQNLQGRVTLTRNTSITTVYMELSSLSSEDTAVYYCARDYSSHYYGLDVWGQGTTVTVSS VL: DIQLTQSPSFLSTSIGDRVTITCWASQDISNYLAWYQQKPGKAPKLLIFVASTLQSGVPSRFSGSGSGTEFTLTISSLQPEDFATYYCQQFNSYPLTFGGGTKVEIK | 7.66e-05
* VQ8F11-21 (antibody, V domains shown, Human variable regions with mouse constant region; also called VQ8F11-21 mIgG2a) VH: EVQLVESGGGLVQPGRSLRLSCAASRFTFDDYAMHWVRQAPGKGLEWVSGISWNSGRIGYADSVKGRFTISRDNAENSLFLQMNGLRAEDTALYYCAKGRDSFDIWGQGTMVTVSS VL: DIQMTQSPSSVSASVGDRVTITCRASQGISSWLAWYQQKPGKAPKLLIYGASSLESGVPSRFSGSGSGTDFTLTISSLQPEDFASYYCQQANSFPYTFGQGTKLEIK | 5.27e-05
* VQ8A9-6 (antibody, V domains shown, Human variable regions with mouse constant region (hybridoma-derived chimeric antibody); also called VQ8A9-6 mIgG1) VH: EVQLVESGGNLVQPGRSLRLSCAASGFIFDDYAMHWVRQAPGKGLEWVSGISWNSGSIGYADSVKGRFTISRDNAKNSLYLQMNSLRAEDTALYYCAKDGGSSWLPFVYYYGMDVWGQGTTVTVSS VL: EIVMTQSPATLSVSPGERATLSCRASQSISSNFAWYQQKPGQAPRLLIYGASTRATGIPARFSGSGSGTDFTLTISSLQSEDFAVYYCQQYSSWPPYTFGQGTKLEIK | 0.000221
